target: bovine Estrogen Receptor (ER), ESR1 (gene 407238) (UniProt P49884); experiment: NVS_NR_bER: NovaScreen (NVS) Nuclear Receptor Binding Assay for bovine Estrogen Receptor (ER) (AID 2283345);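 note: actives lower the bound radioligand count which means they displace the ER ligand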
Sequence (P49884 whole entry, looked up): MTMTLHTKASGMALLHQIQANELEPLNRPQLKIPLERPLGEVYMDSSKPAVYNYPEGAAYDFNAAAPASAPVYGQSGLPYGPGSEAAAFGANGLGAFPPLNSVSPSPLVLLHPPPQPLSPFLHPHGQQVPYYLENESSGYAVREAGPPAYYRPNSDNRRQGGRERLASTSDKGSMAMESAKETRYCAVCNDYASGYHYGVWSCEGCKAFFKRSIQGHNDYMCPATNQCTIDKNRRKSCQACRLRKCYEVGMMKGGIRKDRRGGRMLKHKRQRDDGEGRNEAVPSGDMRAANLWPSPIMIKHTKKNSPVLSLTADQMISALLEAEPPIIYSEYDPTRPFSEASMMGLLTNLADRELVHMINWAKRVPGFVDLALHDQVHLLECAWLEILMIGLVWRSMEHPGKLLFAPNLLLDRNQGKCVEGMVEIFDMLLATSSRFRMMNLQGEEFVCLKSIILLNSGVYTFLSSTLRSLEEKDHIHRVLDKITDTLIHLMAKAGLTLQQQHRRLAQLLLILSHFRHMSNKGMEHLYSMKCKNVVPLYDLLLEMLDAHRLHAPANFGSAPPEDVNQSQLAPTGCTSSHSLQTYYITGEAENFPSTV
Results filed as inconclusive are left out. The source made the active and inactive calls. Rule for the calls: active = hit-call score of the fitted dose curve at least 0.9, where 1 is the maximum; inconclusive = response in the unintended direction; inactive = score below 0.9.
metric: outcome

>  <molecule>
CCCCCCCC=O

>  <tested-on>
bovine Estrogen Receptor (ER), ESR1 (gene 407238) (UniProt P49884)

>  <result>
inactive

$$$$
>  <molecule>
CCCCC(CC)COC(=O)CC(C(=O)OCC(CC)CCCC)S(=O)(=O)O (stereo not drawn)

>  <tested-on>
bovine Estrogen Receptor (ER), ESR1 (gene 407238) (UniProt P49884)

>  <result>
inactive

$$$$
>  <molecule>
CCCCCCC(=O)OCC

>  <tested-on>
bovine Estrogen Receptor (ER), ESR1 (gene 407238) (UniProt P49884)

>  <result>
inactive

$$$$

====

read-out: Caspase-3 (Homo sapiens); experiment: LTEA_HepaRG_CASP3: Life Technologies and Expression Analysis (LTEA) Assay for cysteine-aspartic acid protease (CASP3) using HepaRG (AID 2283477); conditions: mRNA level, 48 h; actives raise or lower the signal
Calls of active or inactive are those of the source. Rule for the calls: active = hit-call score of the fitted dose curve at least 0.9, where 1 is the maximum; inactive = score below 0.9.
Labels: true (1) = active, false (0) = inactive

>  <compound>
CCCCCCCCCCCC(=O)OC

>  <group>
false (0)

$$$$
>  <compound>
CNC(=O)[C@H]1O[C@@H](n2cnc3c(NCc4cc(Cl)ccc4OCc4cc(C)no4)ncnc32)[C@H](O)[C@@H]1N

>  <group>
false (0)

$$$$
>  <compound>
CCCCCC(=O)O

>  <group>
false (0)

$$$$
>  <compound>
Nc1ccc(S(=O)(=O)c2ccc(N)cc2)cc1

>  <group>
false (0)

$$$$
>  <compound>
C[Si]1(C)O[Si](C)(C)O[Si](C)(C)O[Si](C)(C)O1

>  <group>
false (0)

$$$$
>  <compound>
CCCCC(CC)COC(=O)CC(C(=O)OCC(CC)CCCC)S(=O)(=O)O (stereo not drawn)

>  <group>
true (1)

$$$$
>  <compound>
CCCCCCCCCCCCCO

>  <group>
false (0)

$$$$
>  <compound>
Cc1ccc2ncccc2c1

>  <group>
false (0)

$$$$
>  <compound>
Cc1nc(-c2ccc3c(c2)CCN(CCC2CCC(NC(=O)/C=C/c4ccc(F)cc4)CC2)CC3)no1 (stereo not drawn)

>  <group>
false (0)

$$$$
>  <compound>
CCCCCCC(=O)OCC

>  <group>
false (0)

$$$$
>  <compound>
c1cc(-c2ccncc2)ccn1

>  <group>
false (0)

$$$$
>  <compound>
Cc1oc(-c2ccccc2)nc1CCOc1cccc2c1ccn2CCC(=O)O

>  <group>
false (0)

$$$$
>  <compound>
CC1=C(/C=C/C(C)=C/C=C/C(C)=C/CO)C(C)(C)CCC1

>  <group>
false (0)

$$$$

====

molecular target: human Vitamin D Receptor (VDR), VDR (gene 7421) (UniProt P11473); experiment: ATG_VDR_TRANS: Attagene TRANS-FACTORIAL HepG2 Assay for human Vitamin D Receptor (VDR) (AID 2283022)
Sequence (P11473 whole entry, looked up): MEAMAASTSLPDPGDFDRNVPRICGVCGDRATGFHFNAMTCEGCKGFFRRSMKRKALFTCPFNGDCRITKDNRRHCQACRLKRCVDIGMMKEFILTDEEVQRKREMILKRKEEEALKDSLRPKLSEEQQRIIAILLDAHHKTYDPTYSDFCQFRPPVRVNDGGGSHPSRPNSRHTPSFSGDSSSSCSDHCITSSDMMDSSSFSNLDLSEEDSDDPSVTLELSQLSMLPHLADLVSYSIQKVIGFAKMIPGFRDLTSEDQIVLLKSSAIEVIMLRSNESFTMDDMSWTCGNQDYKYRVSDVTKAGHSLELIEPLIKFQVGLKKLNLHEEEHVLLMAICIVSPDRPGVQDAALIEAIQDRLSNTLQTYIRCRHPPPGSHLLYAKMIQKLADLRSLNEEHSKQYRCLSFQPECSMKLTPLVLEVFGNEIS
Records with an inconclusive call do not appear. The source made the active and inactive calls. How the source made its calls: active means hit-call score of the fitted dose curve at least 0.9, where 1 is the maximum; inconclusive means response in the unintended direction; inactive means score below 0.9.
Labels: T for active, F for inactive

>  <molecule>
C1CCC(SSC2CCCCC2)CC1

>  <group>
F

$$$$
>  <molecule>
Cc1cccc([N+](=O)[O-])c1C

>  <group>
F

$$$$
>  <molecule>
O=c1[nH]cc(F)c(=O)[nH]1

>  <group>
F

$$$$
>  <molecule>
Cc1c(C(=O)O)c(O)cc2c1C(=O)c1c(O)c([C@@H]3O[C@H](CO)[C@@H](O)[C@H](O)[C@H]3O)c(O)c(O)c1C2=O

>  <group>
F

$$$$
>  <molecule>
CCCCCCCCCCCC(=O)OC

>  <group>
F

$$$$
>  <molecule>
C[C@]12C=CC(=O)C=C1CC[C@@H]1[C@@H]2C(=O)C[C@@]2(C)[C@H]1CC[C@]2(O)C(=O)CO

>  <group>
F

$$$$
>  <molecule>
c1cc(-c2ccncc2)ccn1

>  <group>
F

$$$$
>  <molecule>
COc1cc(-c2nc(NC(=O)c3cc4cc(C)cc(C)c4n3CC(=O)O)sc2CCC2CCCCC2)c(OC)cc1Cl

>  <group>
F

$$$$
>  <molecule>
CC1(C)NC(=O)NC1=O

>  <group>
F

$$$$
>  <molecule>
COc1cc(S(=O)(=O)O)c(C)cc1N=Nc1c(O)ccc2cc(S(=O)(=O)O)ccc12

>  <group>
F

$$$$
>  <molecule>
Cc1cc(=O)[nH]c(=S)[nH]1

>  <group>
F

$$$$
>  <molecule>
CNCc1cc(F)ccc1Oc1ccc(Cl)c(Cl)c1

>  <group>
F

$$$$
>  <molecule>
Cc1cc(NC(=O)C(=O)O)cc(C)c1Oc1ccc(O)c2c1CCC2

>  <group>
F

$$$$
>  <molecule>
CCOc1ccc2c(c1)C(C)=CC(C)(C)N2

>  <group>
T

$$$$
>  <molecule>
CCCCCCCC=O

>  <group>
F

$$$$
>  <molecule>
O=C(O)Cc1ccccc1Nc1c(Cl)cccc1Cl

>  <group>
F

$$$$
>  <molecule>
O=[N+]([O-])C(CO)(CO)CO

>  <group>
F

$$$$
>  <molecule>
COC(=O)c1ccc(O)cc1

>  <group>
F

$$$$
>  <molecule>
NS(=O)(=O)c1cc2c(cc1Cl)NCNS2(=O)=O

>  <group>
F

$$$$
>  <molecule>
Cc1ccc(Cl)cc1

>  <group>
F

$$$$
>  <molecule>
O=C(N[C@@H](Cc1ccccc1)[C@@H](O)C(=O)N1C[C@@H](O)[C@@H](O)C1)c1cc2cc(Cl)ccc2[nH]1

>  <group>
F

$$$$
>  <molecule>
CCNc1cccc(C)c1

>  <group>
F

$$$$
>  <molecule>
CCCCCC(=O)O

>  <group>
F

$$$$
>  <molecule>
CC(C)(C)c1cc(O)c(C(C)(C)C)cc1O

>  <group>
T

$$$$
>  <molecule>
COc1ccc(C)cc1N

>  <group>
F

$$$$
>  <molecule>
CCCCC(CC)COC(=O)CC(C(=O)OCC(CC)CCCC)S(=O)(=O)O (stereo unspecified)

>  <group>
F

$$$$
